Cited source: the RNAGym collection of RNA variant scans (doi:10.1101/gr.219683.116)

B1: mRNA-splicing (parent)
chain: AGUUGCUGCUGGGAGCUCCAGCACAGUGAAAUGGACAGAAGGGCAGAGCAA

# Variants of: B1
# protocol: exon inclusion enrichment index; higher = more inclusion; WT1 exon 5 minigene, HEK293
The entries below come with measured exon inclusion enrichment index values attached.
measuredParameter: exon inclusion enrichment index

>>> valuereported("G5A C6G U7G C9A G46U A47C")
0.0165
>>> valuereported("G5A C6G U7G C9A A29U")
0.000861
>>> valuereported("G5U G8U C9U A31C U32G")
0.188
>>> valuereported("G5C C6U G8C C9U U10C A23U")
1.39
>>> valuereported("A14C")
0.099
>>> valuereported("G5U G8U C9U G34U A35U")
0.0186
>>> valuereported("C6A U7A C9A U10A U27G G28A")
0.869
>>> valuereported("G5A C6U U7A G8U C9A C19G A20C")
0.0894
>>> valuereported("G5A C6U U7A G8U C9A G26A")
0.141
>>> valuereported("C6A U7C C9A U10C G15A")
3.34
>>> valuereported("G5C C6A U7C G8A U10A A45U G46A")
0.0675
>>> valuereported("G5A C6G U7G C9A C36A A37C")
0.00188
>>> valuereported("G5U G8U C9U G26U U27A")
0.0473
>>> valuereported("G5C C6A U7C G8A U10A G42C G43U")
0.483
>>> valuereported("G5A C6G U7G C9A A14G G15U")
0.00301
